Data provenance is PubChem BioAssay (NCI).

system: HCT-116 colon; experiment: NCI tumour cell line growth inhibition, 48 h
endpoint.label: TGI

Use these answered entries as a reference point.
Data request: # TGI lookup, item Nc1ncc2c(n1)-c1ccccc1OC2N1CCCC1 (stereo not given)
Data returned: > 100 µM

Data request: # TGI lookup, item Cc1cc2c(cc1C)[n+](=O)cc(C(=O)C/C(=N/NC(=S)NN)C(=O)Nc1cccc(C(F)(F)F)c1)n2[O-]
Data returned: > 100 µM

Data request: # TGI lookup, item CC1=C(C#N)c2nc3ccccc3n2C(=O)C1(C)CCO (stereo not given)
Data returned: > 100 µM

Data request: # TGI lookup, item COc1ccc(N2C(=O)C3c4[nH]c5cc(C)ccc5c4C4CCC(C(C)(C)C)CC4C3C2=O)cc1 (stereo not given)
Data returned: > 10 µM

We now examine a further molecule.
Data request: # TGI lookup, item CSc1csc(-c2ccc(-c3ccc(-c4cc(SC)cs4)s3)s2)c1
Data returned: > 100 µM
